# Test system: K24384-001-R-PDC complex spheroid viability
# Test summary: Anticancer human tumor K24384-001-R-PDC patient-derived pancreatic adenocarcinoma cell line growth inhibition
# Details: second compound 3.16 µM; first compound 0.949 µM; stronger effect = lower value
Exam item: assign MET to entries whose viability, T/C is below 40% and NOT MET to entries at or above 40%. Note that a value of exactly 40% receives NOT MET.

These recorded examples may help you get a feel for the data.
[
  {
    "Molecule": "CCN(c1cc(-c2ccc(CN3CCOCC3)cc2)cc(C(=O)NCc2c(C)cc(C)[nH]c2=O)c1C)C1CCOCC1 + NC1CC1c1ccc(-c2cccc(O)c2)cc1",
    "Label": "NOT MET"
  },
  {
    "Molecule": "COc1cc(C2c3cc4c(cc3C(OC3OC5COC(C)OC5C(O)C3O)C3COC(=O)C23)OCO4)cc(OC)c1O (stereo not given) + NC1CCC(NC2CC2c2ccccc2)CC1",
    "Label": "NOT MET"
  },
  {
    "Molecule": "NS(=O)(=O)OCC1CC(n2ccc3c(NC4CCc5ccccc54)ncnc32)CC1O (stereo not given) + NC1CCC(NC2CC2c2ccccc2)CC1",
    "Label": "MET"
  },
  {
    "Molecule": "O=C(C=Cc1cccc(S(=O)(=O)Nc2ccccc2)c1)NO + NC1CC1c1ccc(-c2cccc(O)c2)cc1",
    "Label": "MET"
  }
]

Query :: Strictly below 40%: is that where viability, T/C of COc1cc(C2c3cc4c(cc3C(OC3OC5COC(C)OC5C(O)C3O)C3COC(=O)C23)OCO4)cc(OC)c1O (stereo not given) + NC1CC1c1ccc(-c2cccc(O)c2)cc1 sits?
Result :: NOT MET

----------
# System: K24384-001-R-PDC complex spheroid viability
# Test summary: Anticancer human tumor K24384-001-R-PDC cell line growth inhibition;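 further: spheroids exposed to agents for seven days before luminescence viability reading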;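 on viability, T/C: 100% = DMSO vehicle control viability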
# Details: second compound 1 µM; first compound 0.000949 µM; stronger effect = lower value
# Excerpt: Multicellular complex tumor spheroid response to LSD1 Inhibitor Iadademstat in combination with a variety of drugs and investigational agents in selected tumor cell lines The current study was undertaken to assess response to LSD1 inhibitors in combination with standard-of-care drugs and investigational agents in solid tumor complex spheroid models as well as in the K-562 leukemia. […] Compounds. […] If the clinical Cmax for an agent had not been determined, the highest concentration tested was 10 microM. […]
Parameter: viability, T/C (%)
Give bare numbers, in %.

Some compounds with known viability, T/C results, for comparison:
[
  {
    "Compound": "CCc1c2c(nc3ccc(O)cc13)-c1cc3c(c(=O)n1C2)COC(=O)[C@]3(O)CC + NC1CC1c1ccc(-c2cccc(O)c2)cc1",
    "Display unit": "%",
    "Observed result": 36.8
  },
  {
    "Compound": "Nc1ccn(C2OC(CO)C(O)C2(F)F)c(=O)n1 (stereo not drawn) + NC1CC1c1ccc(-c2cccc(O)c2)cc1",
    "Display unit": "%",
    "Observed result": 75
  }
]

Query :: Could you tell me which viability, T/C is on file for Nc1ccn(C2OC(CO)C(O)C2(F)F)c(=O)n1 (stereo not drawn) + NC1CCC(NC2CC2c2ccccc2)CC1 ?
Result :: 85.9

----------
# Tested on: K24384-001-R-PDC complex spheroid viability
# Test summary: Anticancer human tumor K24384-001-R-PDC cell line growth inhibition;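 further: spheroids exposed to agents for seven days before luminescence viability reading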
# Details: curve of first compound; second compound 1 µM
# From the text: Multicellular complex tumor spheroid response to LSD1 Inhibitor Iadademstat in combination with a variety of drugs and investigational agents in selected tumor cell lines The current study was undertaken to assess response to LSD1 inhibitors in combination with standard-of-care drugs and investigational agents in solid tumor complex spheroid models as well as in the K-562 leukemia. […] Compounds. […] If the clinical Cmax for an agent had not been determined, the highest concentration tested was 10 microM. […]
Parameter: IC50 (µM)
Answers are plain numbers, in µM.

Some compounds with known IC50 results, for comparison:
[
  {
    "Compound": "COc1cc(Nc2ncc3c(n2)-c2ccc(Cl)cc2C(c2c(F)cccc2OC)=NC3)ccc1C(=O)O + NC1CC1c1ccc(-c2cccc(O)c2)cc1",
    "Assayed target": "K24384-001-R-PDC complex spheroid viability",
    "Observed result": 0.0483
  },
  {
    "Compound": "COc1ccc([C@@H](O)c2cc(-c3ncnc4cc(N5CCOCC5)ccc34)c(F)cc2Cl)nn1 + NC1CCC(NC2CC2c2ccccc2)CC1",
    "Assayed target": "K24384-001-R-PDC complex spheroid viability",
    "Observed result": 1.12
  },
  {
    "Compound": "O=C(C=Cc1cccc(S(=O)(=O)Nc2ccccc2)c1)NO + NC1CC1c1ccc(-c2cccc(O)c2)cc1",
    "Assayed target": "K24384-001-R-PDC complex spheroid viability",
    "Observed result": 0.229
  }
]

Query :: IC50 of Nc1ccn(C2OC(CO)C(O)C2(F)F)c(=O)n1 (stereo unspecified) + NC1CC1c1ccc(-c2cccc(O)c2)cc1 on K24384-001-R-PDC complex spheroid viability?
Result :: 0.0381
